# System: HS 578T breast
# test_details: NCI tumour cell line growth inhibition, 48 h
measured_parameter: GI50

compound | GI50
CCOC(=O)/C(C#N)=C\C=C(/Cl)c1ccc(Cl)cc1 | 22700 nM

Find the recorded GI50 belonging to CCCCn1c(-c2ccc(C(=O)O/N=C(\N)c3ccc4c(c3)OCO4)cc2)nc(-c2ccccc2)c1-c1ccccc1 and report it.
1880 nM

Find the recorded GI50 belonging to C=C1C(=O)O[C@H]2[C@H]1CC/C(COC(=O)NCC(C)c1ccc(CC(C)C)cc1)=C\CC[C@@]1(C)O[C@@H]21 (stereo partly specified) and report it.
1530 nM

Find the recorded GI50 belonging to N#Cc1ccc(NC(=O)C(CC(=O)OCc2ccccc2)NC(=O)OCc2ccccc2)cc1 (stereo unspecified) and report it.
> 100000 nM

Find the recorded GI50 belonging to Oc1ccccc1-c1nn(CNc2ccccc2Cl)c(=S)o1 and report it.
> 100000 nM

Find the recorded GI50 belonging to Cc1ccc(-c2nc3nc(-c4ccc(F)cc4)nc(N4CCCNCC4)c3o2)cc1 and report it.
1780 nM

====

# System: LOX IMVI melanoma
# test_details: NCI tumour cell line growth inhibition, 48 h
measured_parameter: TGI

Find the recorded TGI belonging to CNC(=O)c1nn(C)c2c1C(C)(C)Cc1cnc(Nc3ccc(N4CCN(C)CC4)cc3)nc1-2 and report it.
> 10 µM

Find the recorded TGI belonging to CCOC(=O)c1cn2c(n1)sc1cc(Cl)cc(Cl)c12 and report it.
> 100 µM

Find the recorded TGI belonging to CN(C)C(=O)O[C@H]1CN[C@H](C#Cc2cc3ncnc(Nc4ccc(OCc5cccc(F)c5)c(Cl)c4)c3s2)C1 and report it.
> 25 µM

Find the recorded TGI belonging to O=[N+]([O-])c1ccc(Sc2c3ccccc3nc3cc(Cl)ccc23)cc1 and report it.
> 100 µM

Find the recorded TGI belonging to O=C(c1ccncc1)C1C(=O)c2ccccc2C1C1(O)c2ccccc2CC1C(O)c1ccncc1 (stereo unspecified) and report it.
> 100 µM

Find the recorded TGI belonging to CC(=O)OCC1OC(N2C(=O)C(=O)c3ccccc32)C(OC(C)=O)C(OC(C)=O)C1OC(C)=O (stereo unspecified) and report it.
> 100 µM

====

The following compounds are listed with their measured TGI values.
# System: SF-295 CNS
# test_details: NCI tumour cell line growth inhibition, 48 h
Your answer should be a plain number; it is taken to be in µM.

Solved cases below.
compound | TGI [µM]
O=C1CCCCN1CCCCC#Cc1cccc(C#Cc2cccnc2)c1 | 84
CCNC(=O)c1noc(-c2cc(C(C)C)c(O)cc2O)c1-c1ccc(CN2CCOCC2)cc1 | 11.2
O=C(Nc1ccc(Cl)c(Cl)c1)NS(=O)(=O)c1cnccc1Oc1ccc(F)cc1 | 4.8

Please look at the following compound next.
Find the recorded TGI belonging to CN(C)CC1CCC(CN(C)C)C1=O (stereo not given) and report it.
32.8

====

# Tested on: K-562 leukemia
# test_details: NCI tumour cell line growth inhibition, 48 h
measured_parameter: TGI

Solved cases below.
compound | target_of_assay | measured_parameter | assay_result
C/C(=N/NC(=O)C[N+](C)(C)C)C(CN(C)C)C(=O)Nc1ccccc1 (configuration not stated) | K-562 leukemia | TGI | > 100 µM
COC(=O)C1=Nc2c(C)nn(-c3ccccc3)c2N=C(c2ccccc2)C1 | K-562 leukemia | TGI | > 10 µM
CC1(C)[C@H]2CC[C@@]13C(=O)N1C(=O)O[C@@H]([C@H]1Cl)C(Cl)(COCc1ccccc1)C(=O)OCCO[C@H]3C2 (some centres not stated) | K-562 leukemia | TGI | > 100 µM
Cc1ccc(-c2nc3nc(-c4ccc(F)cc4)nc(N4CCCNCC4)c3o2)cc1 | K-562 leukemia | TGI | 0.539 µM
CC(=O)c1ccc2c(c1)CC1(C2)Cc2ccccc2C1=O (configuration not stated) | K-562 leukemia | TGI | > 100 µM
O=c1c2cc(Br)ccc2nc(CCl)n1-c1ccc(O)c([N+](=O)[O-])c1 | K-562 leukemia | TGI | 48.5 µM

Fill in the recorded TGI for this compound, with K-562 leukemia as test system: O=C(O)c1ccc(C2C(=O)N[C@@H]3CCC[C@H]23)cc1 (some centres not stated)
> 100 µM

Fill in the recorded TGI for this compound, with K-562 leukemia as test system: NS(=O)(=O)c1cccc(NC(=S)NC(=O)Nc2ccc(Cl)c(Cl)c2)c1
37.2 µM

Fill in the recorded TGI for this compound, with K-562 leukemia as test system: O=C1CSC2=NC3=C(COC/C3=C\c3ccc(Br)cc3)C(c3ccc(Br)cc3)N12 (configuration not stated)
> 100 µM

Fill in the recorded TGI for this compound, with K-562 leukemia as test system: c1c2c(cc(-n3nnc4c3CCCCCC4)c1-n1nnc3c1CCCCCC3)CCCCCC2
40.6 µM

Fill in the recorded TGI for this compound, with K-562 leukemia as test system: COc1ccc(CC2COc3cc(O)cc(O)c3C2=O)cc1O (configuration not stated)
> 100 µM

Fill in the recorded TGI for this compound, with K-562 leukemia as test system: CCOC(=O)NC(=O)c1cn(CCN2CCN(C(=O)CCCCCCCCCCC(=O)N3CCN(CCn4cc(C(=O)NC(=O)OCC)c(=O)[nH]c4=O)CC3)CC2)c(=O)[nH]c1=O
> 100 µM

Fill in the recorded TGI for this compound, with K-562 leukemia as test system: Cc1ccccc1C(=O)N1CCN(C(=O)c2ccccc2C)CC1
> 100 µM

Fill in the recorded TGI for this compound, with K-562 leukemia as test system: COc1cc2c(cc1Cc1c(F)cccc1Cl)nc(-c1c(F)cccc1Cl)n2Cc1c(F)cccc1Cl
> 100 µM

Fill in the recorded TGI for this compound, with K-562 leukemia as test system: CCNC(=O)c1noc(-c2cc(C(C)C)c(O)cc2O)c1-c1ccc(CN2CCOCC2)cc1
> 46.3 µM

Fill in the recorded TGI for this compound, with K-562 leukemia as test system: COc1nc(C#CC(C)(C)C)nc(OC)n1
> 100 µM

====

# System: LOX IMVI melanoma
# test_details: NCI tumour cell line growth inhibition, 48 h; in the data active means GI50 below about 0.43 µM; inactive means the rest
Lab note: assign the record to one of 1 = active, 0 = inactive

Reference set, count: 3
item_smiles | answer_label
COc1cnc2c(c1)C(=O)c1c-2n(CCCN2CCN(C)CC2)c(=O)c2cc([N+](=O)[O-])ccc12 | 1
Cc1ccc(NC(=O)c2cc(S(=O)(=O)N3C(=O)NC(=O)NS3(=O)=O)c(S)cc2Cl)cc1 | 0
C=C(CN(C)C)C(=O)c1ccccc1[N+](=O)[O-] | 0

Record lookup: outcome of this test for O=C(Nc1ccc(Cl)c(Cl)c1)NS(=O)(=O)c1cnccc1Oc1ccc(F)cc1 ?
0

Record lookup: outcome of this test for CN(C)C(=O)O[C@H]1CN[C@H](C#Cc2cc3ncnc(Nc4ccc(OCc5cccc(F)c5)c(Cl)c4)c3s2)C1 ?
0

Record lookup: outcome of this test for O=C(N/N=C/c1ccccc1O)c1ccccc1 ?
0

Record lookup: outcome of this test for O=S(=O)(NCCCNc1nccc(-c2c(-c3ccc(F)cc3)nc3sccn23)n1)c1ccc2ccccc2c1 ?
0

Record lookup: outcome of this test for CNC(=O)c1nn(C)c2c1C(C)(C)Cc1cnc(Nc3ccc(N4CCN(C)CC4)cc3)nc1-2 ?
0

Record lookup: outcome of this test for CN1/C(=C\C=C\C2=[N+](C)c3ccccc3C2(C)C)C(C)(C)c2ccccc21 ?
1

Record lookup: outcome of this test for CCOC(=O)/C(C#N)=C\C=C(/Cl)c1ccc(Cl)cc1 ?
0

====

# System: LOX IMVI melanoma
# test_details: NCI tumour cell line growth inhibition, 48 h
measured_parameter: TGI

Solved cases below.
compound | assay_result
O=C(Nc1ccc(Cl)c(Cl)c1)NS(=O)(=O)c1cnccc1Oc1ccc(F)cc1 | 53.1 µM
COC(=O)/C(C#N)=C(/NCCN)Nc1ccccc1 | > 100 µM
CCOC(=O)/C(O)=C1\C(=O)N(C)C(=O)C1c1cccc(OC)c1 (centres undefined) | > 100 µM
O=C(N/N=C/c1cccc(F)c1)c1ccncc1 | > 100 µM
O=C1CSC2=NC3=C(COC/C3=C\c3ccc(Br)cc3)C(c3ccc(Br)cc3)N12 (centres undefined) | > 100 µM

Find the recorded TGI belonging to N#CNC(N)=Nc1ccc(Cl)cc1 and report it.
> 100 µM

Find the recorded TGI belonging to CC(=O)OC1C(COC(=O)c2ccccc2)OC(Nc2ncc(-c3ccc(Br)cc3)s2)C(OC(=O)c2ccccc2)C1OC(=O)c1ccccc1 (centres undefined) and report it.
> 100 µM

Find the recorded TGI belonging to CCCCn1c(-c2ccc(C(=O)O/N=C(\N)c3ccc4c(c3)OCO4)cc2)nc(-c2ccccc2)c1-c1ccccc1 and report it.
0.379 µM

Find the recorded TGI belonging to COc1cc(/C=C/C=C2\CC/C(=C\C=C\c3ccc(O)c(OC)c3)C2=O)ccc1O and report it.
> 100 µM

Find the recorded TGI belonging to CC(=O)c1ccc(O)c(CN(C2CCCCC2)C2CCCCC2)c1O and report it.
> 100 µM

Find the recorded TGI belonging to C#CCN(Cc1ccc2nc(OC)c(OC)nc2c1)c1cc(OC)c(OC)c(OC)c1 and report it.
> 48.9 µM

Find the recorded TGI belonging to Cc1c(C(=O)O)oc2ccc([N+](=O)[O-])cc12 and report it.
> 100 µM

Find the recorded TGI belonging to CC(C)(Oc1ccc(/C=C/C(=O)c2ccc(Cl)cc2)cc1)C(=O)Nc1c(Cl)cccc1Cl and report it.
31 µM

Find the recorded TGI belonging to CC(C)(C)OC(=O)NCCCCCCCn1c2c(c3ccccc3c1=O)C(=O)c1ccccc1-2 and report it.
> 100 µM

Find the recorded TGI belonging to CC(=O)c1ccc2c(c1)CC1(C2)Cc2ccccc2C1=O (centres undefined) and report it.
> 100 µM

Find the recorded TGI belonging to CN(C)CCC(=O)/C=C\c1ccccc1 and report it.
29.6 µM

Find the recorded TGI belonging to CN(C)CCNC(=O)c1cccc2nc(-c3ccccc3)oc12 and report it.
> 71.8 µM

Find the recorded TGI belonging to O=C(O)[C@H](c1ccccc1)[C@@H](C(=O)O)c1ccccc1 and report it.
> 100 µM

Find the recorded TGI belonging to C[N+](C)(C)CC1CCCCC1O (centres undefined) and report it.
> 100 µM
